Test: Quantitative High-Throughput drug screen in 47 multiple myeloma cell lines against the NCATS MIPE library collection: KMS28BM_JCRB cell viability assay (AID 1919874); note: nearly all actives have a fitted effect of over 35% in size
Conditions: CellTiter-Glo ATP, 48 h; series mostly up to 45.8 µM
Results filed as inconclusive are left out. The source made the active and inactive calls. Calls come from the whole dose curve; as a rule, active = well fitted cell-killing curve with a large enough effect; inconclusive = small, poorly fitted or top-dose-only effect, or effect the other way; inactive = no such curve, though single readings can be large or run the other way.
Classes to choose from: active, inactive

These solved cases illustrate the format of a correct answer.
smiles.notation: CN[C@@H]1Cc2cccc3[nH]c(=O)n(c23)C1
group.label: inactive
--
smiles.notation: COc1ccc2c(c[n+](C)c3c4cc5c(cc4ccc23)OCO5)c1OC
group.label: active
--
smiles.notation: CC(=O)OCC1=C(C(=O)O)N2C(=O)[C@@H](N)[C@@H]2SC1
group.label: inactive

# input Hey, what did the test say about "O=C(N[C@H]1CN2CCC1CC2)c1ccc(Cl)cc1" ?
# output inactive

# input Hey, what did the test say about "CC(=Cc1csc(C)n1)[C@@H]1C[C@H]2O[C@@H]2CCC[C@H](C)[C@@H](O)[C@@H](C)C(=O)C(C)(C)[C@@H](O)CC(=O)O1" ?
# output inactive

###

Test: qHTS of pediatric cancer cell lines to identify multiple opportunities for drug repurposing: Confirmatory screen for SJ-GBM2 cells (AID 1347116);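 note: 48 hour compound exposure; nearly all actives have a fitted effect of over 60% in size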
Details: SJ-GBM2 glioblastoma cells, viability; series mostly up to 45.9 µM
Procedure: Drug repurposing or repositioning has been offered as a strategy for drug development in oncology programs. […] [1] Shen, M et al. Quantitative high-throughput phenotypic screening of pediatric cancer cell lines identifies multiple opportunities for drug repurposing. […] Cells were assayed in growth media at a density of 500-1,000 cells/well. […] After a 15 min incubation at room temperature, samples were analyzed for luminescence intensity using a ViewLux High-throughput CCD imager equipped with clear filters.
Results filed as inconclusive are left out. Calls of active or inactive are those of the source. Calls follow the shape of the dose curve; as a rule, active = well fitted cell-killing curve with a large enough effect; inconclusive = small, poorly fitted or top-dose-only effect, or effect the other way; inactive = no such curve, though single readings can be large or run the other way.
Classes to choose from: yes for active, no for inactive

These solved cases illustrate the format of a correct answer.
smiles.notation: CC(C)(O)C=CC(=O)[C@](C)(O)[C@H]1[C@H](O)C[C@]2(C)[C@@H]3CC=C4[C@@H](C=C(O)C(=O)C4(C)C)[C@]3(C)C(=O)C[C@@]12C
group.label: yes
//
smiles.notation: CC(=Cc1csc(C)n1)[C@@H]1C[C@H]2O[C@@H]2CCC[C@H](C)[C@@H](O)[C@@H](C)C(=O)C(C)(C)[C@@H](O)CC(=O)O1
group.label: yes
//
smiles.notation: CC(=O)[O][Hg][c]1ccccc1
group.label: yes
//
smiles.notation: CC(C)N[C@@H]1CCn2c(=O)[nH]c3cccc(c32)[C@@H]1O
group.label: no
//
smiles.notation: Cc1ccccc1-n1c(Cn2cnc3c(N)ncnc32)nc2cccc(C)c2c1=O
group.label: no
//
smiles.notation: C[C@@H]1O[C@@H](O[C@@H]2C=C3CC[C@@H]4[C@@H](CC[C@]5(C)[C@H](c6ccc(=O)oc6)CC[C@@]45O)[C@@]3(C)CC2)[C@H](O)[C@H](O)[C@H]1O
group.label: yes
//
smiles.notation: CS(=O)(=O)c1ccc(C(=O)C2C(=O)CCCC2=O)c([N+](=O)[O-])c1
group.label: no

# input Hey, what did the test say about "CC1=C(O)C(=O)C=C2C1=CC=C1[C@@]2(C)CC[C@@]2(C)[C@@H]3C[C@](C)(C(=O)O)CC[C@]3(C)CC[C@]12C" ?
# output yes

###

Assay: Quantitative High-Throughput drug screen in 47 multiple myeloma cell lines against the NCATS MIPE library collection: OPM1_PLB cell viability assay (AID 1918989); note: nearly all actives have a fitted effect of over 40% in size
Conditions: CellTiter-Glo, 48 h; series mostly up to 45.8 µM
Results filed as inconclusive are left out. Calls of active or inactive are those of the source. The call rests on the fitted dose curve; in most records, active means well fitted cell-killing curve with a large enough effect; inconclusive means small, poorly fitted or top-dose-only effect, or effect the other way; inactive means no such curve, though single readings can be large or run the other way.
Classes to choose from: active, inactive

These solved cases illustrate the format of a correct answer.
compound: O=C1CCC[C@@H]2[C@H]3CCCN4CCC[C@@H](CN12)[C@@H]34
group.label: inactive
//
compound: CC[C@@]1(O)C(=O)OCc2c1cc1n(c2=O)Cc2cc3ccccc3nc2-1
group.label: active
//
compound: CC(=CCCC1=CCC(C2=CC(=O)OC2O)OC1O)CCC1=C(C)CCCC1(C)C (stereo not given)
group.label: active

# input Hey, what did the test say about "O=S(=O)(F)Cc1ccccc1" ?
# output active

# input Hey, what did the test say about "N#C[C@H](O[C@@H]1O[C@H](CO[C@@H]2O[C@H](CO)[C@H](O)[C@H](O)[C@H]2O)[C@H](O)[C@H](O)[C@H]1O)c1ccccc1" ?
# output active

# input Hey, what did the test say about "Oc1ccc2c3c1O[C@H]1c4[nH]c5c(c4C[C@@]4(O)[C@@H](C2)N(CC2CC2)CC[C@]314)C[C@@]1(O)[C@H]2Cc3ccc(O)c4c3[C@@]1(CCN2CC1CC1)[C@H]5O4" ?
# output inactive

# input Hey, what did the test say about "COc1ccc(C(=O)c2c(C)n(CCN3CCOCC3)c3cc(I)ccc23)cc1" ?
# output active

###

System: AA1029
Experiment: qHTS profiling for inhibitors of Plasmodium falciparum proliferation (AID 504749); note: nearly all actives have a fitted effect of over 60% in size
Conditions: P. falciparum in erythrocytes, SYBR Green DNA, 72 h; series mostly up to 28.7 µM
Inconclusive results are not listed. The source made the active and inactive calls. Calls follow the shape of the dose curve; as a rule, active = well fitted inhibition curve with a large enough effect; inconclusive = small, poorly fitted or top-dose-only effect; inactive = flat fitted curve, though single readings scatter.
Classes to choose from: yes (active), no (inactive)

These solved cases illustrate the format of a correct answer.
molecule: O=C(O)C(Cl)Cl
group.label: no
//
molecule: CN1C2CCC1CC(OC(=O)c1cc(Cl)cc(Cl)c1)C2 (configuration not stated)
group.label: no
//
molecule: CCCN1CCC[C@H](c2cccc(O)c2)C1
group.label: no

# input Hey, what did the test say about "CC(=O)[O][Hg][c]1ccccc1" ?
# output yes

# input Hey, what did the test say about "CN(C)[C@@H]1C(=O)C(C(N)=O)=C(O)[C@@]2(O)C(=O)C3=C(O)c4c(O)cccc4[C@@](C)(O)[C@H]3[C@H](O)[C@@H]12" ?
# output no

# input Hey, what did the test say about c1ccc(C2(c3ccccc3)CC2C2=NCCN2)cc1 (configuration not stated) ?
# output no

# input Hey, what did the test say about "O=C(O)COc1ccccc1" ?
# output no

# input Hey, what did the test say about CCCCCCCCCC(CC)c1ccc(S(=O)(=O)O)cc1 (configuration not stated) ?
# output no

# input Hey, what did the test say about C#CC1(O)CCC2C3CCC4=CC(=O)CCC4(C)C3CCC21C (configuration not stated) ?
# output no

# input Hey, what did the test say about "O=[N+]([O-])c1ccc([As](=O)(O)O)cc1" ?
# output yes

# input Hey, what did the test say about "COC(=O)[C@@H](N)CCCN=C(N)N[N+](=O)[O-]" ?
# output no

# input Hey, what did the test say about "CCCCc1ccc(C(=O)O)nc1" ?
# output no

###

Experiment: Cell Viability - LYMP2-015 (AID 971);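 note: cells exposed to compound for 24 h; nearly all actives have a fitted effect of over 55% in size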
Conditions: LYMP2-015 lymphoblastoid cell viability; series mostly up to 92.2 µM
Results filed as inconclusive are left out. Calls of active or inactive are those of the source. Calls follow the shape of the dose curve; as a rule, active = well fitted cell-killing curve with a large enough effect; inconclusive = small, poorly fitted or top-dose-only effect; inactive = flat fitted curve, though single readings scatter.
Classes to choose from: active, inactive

These solved cases illustrate the format of a correct answer.
compound: C1CCC(NC2CCCCC2)CC1
group.label: inactive
--
compound: OCCCBr
group.label: inactive
--
compound: CCOP(=O)(NC(C)C)Oc1ccc(SC)c(C)c1 (stereo not drawn)
group.label: inactive
--
compound: CC(=O)[O][Hg][c]1ccccc1
group.label: active
--
compound: COc1ccc(C(c2ccc(OC)cc2)C(Cl)(Cl)Cl)cc1
group.label: inactive
--
compound: O=[N+]([O-])c1c(Cl)c(Cl)cc(Cl)c1Cl
group.label: inactive
--
compound: O=[N+]([O-])c1c2ccccc2cc2ccccc12
group.label: inactive
--
compound: C=CC(=O)NCNC(=O)C=C
group.label: inactive

Please find the next compound below.
# input Hey, what did the test say about CCCCC(CC)COC(=O)c1ccccc1C(=O)OCC(CC)CCCC (stereo not drawn) ?
# output inactive

###

Assay: Quantitative High-Throughput drug screen in 47 multiple myeloma cell lines against the NCATS MIPE library collection: H1112_PLB cell viability assay (AID 1918967; note: nearly all actives have a fitted effect of over 30% in size)
Conditions: H1112 myeloma cells viability, ATP luminescence, 48 h; series mostly up to 45.8 µM
Records with an inconclusive call do not appear. The source made the active and inactive calls. Calls follow the shape of the dose curve; as a rule, active = well fitted cell-killing curve with a large enough effect; inconclusive = small, poorly fitted or top-dose-only effect, or effect the other way; inactive = no such curve, though single readings can be large or run the other way.
Classes to choose from: active, inactive

These solved cases illustrate the format of a correct answer.
molecule: CC(=Cc1csc(C)n1)[C@@H]1C[C@H]2O[C@]2(C)CCC[C@H](C)[C@@H](O)[C@@H](C)C(=O)C(C)(C)[C@@H](O)CC(=O)O1
group.label: inactive
//
molecule: O=c1[nH]c2ccccc2n1C1CCN(Cc2ccc(-c3[nH]c4cc5ncnc5cc4nc3-c3ccccc3)cc2)CC1
group.label: active
//
molecule: CCCCCC[C@H]1C(=O)O[C@H](C)[C@H](NC(=O)c2cccc(NC=O)c2O)C(=O)O[C@@H](C)[C@@H]1OC(=O)CC(C)C
group.label: active
//
molecule: CC[C@H]1C=CC=CC[C@@H](C)[C@H](O)[C@@](C)(O)C(=O)[C@@H](C)[C@H](O)[C@@H](C)C(=O)[C@@H](C)[C@H](O)[C@@H](C)C=CC(=O)O[C@@H]2[C@@H](C)[C@H](CC1)O[C@]1(CC[C@H](C)[C@H](C[C@@H](C)O)O1)[C@H]2C
group.label: active
//
molecule: CCN1CCN(C(=O)Cc2ccc(Nc3ncc(F)c(Nc4ccc(C(=O)Nc5ccccc5Cl)cc4)n3)cc2)CC1
group.label: active
//
molecule: Cc1nc(-c2ccc(-c3ccc(C(=O)N4CCc5cc6c(cc54)C4(CCN(C)CC4)CO6)cc3)c(C)c2)no1
group.label: inactive
//
molecule: Oc1ccc2c3c1O[C@H]1c4[nH]c5c(c4C[C@@]4(O)[C@@H](C2)N(CC2CC2)CC[C@]314)C[C@@]1(O)[C@H]2Cc3ccc(O)c4c3[C@@]1(CCN2CC1CC1)[C@H]5O4
group.label: inactive
//
molecule: CC(=CCCC1=CCC(C2=CC(=O)OC2O)OC1O)CCC1=C(C)CCCC1(C)C (configuration not stated)
group.label: inactive
//
molecule: NC1CC1c1ccccc1 (configuration not stated)
group.label: inactive
//
molecule: CSCC[C@@H](NC(=O)[C@@H](Cc1ccccc1)NC(=O)CNC(=O)CNC(=O)[C@@H](N)Cc1ccc(O)cc1)C(=O)O
group.label: inactive

# input Hey, what did the test say about N=c1c2c(-c3ccccc3)c(-c3ccccc3)n(Cc3ccccc3)c2ncn1C1CCC(O)CC1 (configuration not stated) ?
# output active

# input Hey, what did the test say about "O=C(O)CNC(=O)c1c(O)c2ccccc2n(Cc2ccccc2)c1=O" ?
# output inactive

# input Hey, what did the test say about "CN1CCN(c2ccc([N+](=O)[O-])c3no[n+]([O-])c23)CC1" ?
# output active

# input Hey, what did the test say about "Clc1ccccc1C(c1ccccc1)(c1ccccc1)n1cccn1" ?
# output inactive

# input Hey, what did the test say about "O=[N+]([O-])c1ncc[nH]1" ?
# output inactive

# input Hey, what did the test say about "CC(C)N(CCNC(=O)CN1CCCC1=O)C(C)C" ?
# output inactive

# input Hey, what did the test say about "C[C@]12CC[C@H]3[C@@H](CCC4=CC(=O)CC[C@@]43C)[C@H]1CC[C@H]2O" ?
# output inactive
